Every entry's value here was drawn from patent US20240018108A1.

- Tested on: OCI-AML3 cell line
- assay.name: MTS assay for cell growth/viability, OCI-AML3
- Type: cell-based
- conditions: Homo sapiens, OCI-AML-3, 96 hours, Table 2 (one study)
measurement.label: IC50
Remember to follow the number with its unit.

INPUT: Under OCI-AML3 cell line: IC50 value of "CCOc1ccc(-c2ccc(-c3cc(C(=O)O)c4cc(F)ccc4n3)cc2F)cc1" ?
OUTPUT: 19.5 nM

* * *

- target.or.system: h-DHODH (Homo sapiens, UniProt Q02127)
- Sequence (Q02127 whole entry): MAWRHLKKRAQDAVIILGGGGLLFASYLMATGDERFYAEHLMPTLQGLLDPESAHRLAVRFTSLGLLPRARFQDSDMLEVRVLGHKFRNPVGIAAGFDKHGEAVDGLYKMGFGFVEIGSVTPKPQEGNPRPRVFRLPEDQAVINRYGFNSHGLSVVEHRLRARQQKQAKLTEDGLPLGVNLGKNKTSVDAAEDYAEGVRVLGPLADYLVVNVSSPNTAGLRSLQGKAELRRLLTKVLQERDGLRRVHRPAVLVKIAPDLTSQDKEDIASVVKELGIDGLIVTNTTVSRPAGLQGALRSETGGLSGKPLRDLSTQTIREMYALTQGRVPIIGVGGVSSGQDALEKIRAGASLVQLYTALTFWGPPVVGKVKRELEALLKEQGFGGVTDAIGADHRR
- assay.name: DHODH enzymatic assay (DCIP reduction)
- conditions: recombinant human enzyme, 25° C., pH 8.0
measurement.label: pIC50
On this scale, pIC50 is minus log10 of a concentration expressed in M (mol/L).

Consider the following illustrative entries.
# chem.smiles, target.or.system, pIC50
data = [
    ("CCOc1ccc(-c2ccc(-c3cc(C(=O)O)c4cc(F)ccc4n3)c(Cl)c2)cc1", "h-DHODH (Homo sapiens, UniProt Q02127)", 7.65),
    ("CCNc1ccc(-c2ccc(-c3cc(C(=O)O)c4cc(F)ccc4n3)cc2F)cc1", "h-DHODH (Homo sapiens, UniProt Q02127)", 8.87),
    ("CCOc1ccc(-c2cc(F)c(-c3cc(C(=O)O)c4cc(F)ccc4n3)c(F)c2)cc1", "h-DHODH (Homo sapiens, UniProt Q02127)", 8.21),
    ("CCOc1ccc(-c2ccc(-c3cc(C(=O)O)c4cc(F)ccc4n3)cc2C)cc1", "h-DHODH (Homo sapiens, UniProt Q02127)", 8.82),
    ("O=C(O)c1cc(-c2ccc(-c3ccccc3)c(F)c2)nc2ccc(F)cc12", "h-DHODH (Homo sapiens, UniProt Q02127)", 9.14),
    ("CCOc1ccc(-c2ccc(-c3cc(C(=O)O)c4cc(F)ccc4n3)cc2Cl)cc1", "h-DHODH (Homo sapiens, UniProt Q02127)", 8.96),
    ("CCOc1ccc(-c2ccc(-c3cc(C(=O)O)c4cc(F)ccc4n3)cc2OC)cc1", "h-DHODH (Homo sapiens, UniProt Q02127)", 8.38),
    ("CCCCOc1cccc(-c2ccc(-c3cc(C(=O)O)c4cc(F)ccc4n3)c(F)c2)c1", "h-DHODH (Homo sapiens, UniProt Q02127)", 9.15),
    ("CCOc1cccc(-c2ccc(-c3cc(C(=O)O)c4cc(F)ccc4n3)cc2OC)c1", "h-DHODH (Homo sapiens, UniProt Q02127)", 8.89),
    ("CCOc1cccc(-c2cc(F)c(-c3cc(C(=O)O)c4cc(F)ccc4n3)c(F)c2)c1", "h-DHODH (Homo sapiens, UniProt Q02127)", 8.92),
]

INPUT: For "CCOc1ccc(-c2cc(F)c(-c3cc(C(=O)O)c4cc(F)ccc4n3)cc2F)cc1" , what is its reported pIC50?
OUTPUT: 8.85

INPUT: Same again, this time with "CCOc1ccc(-c2ccc(-c3cc(C(=O)O)c4cc(F)ccc4n3)c(F)c2)cc1"
OUTPUT: 8.26

INPUT: Thanks! And "CCOc1ccc(-c2ccc(-c3cc(C(=O)O)c4cc(F)ccc4n3)c(C)c2)cc1" ?
OUTPUT: 7.94

INPUT: Please do the same for "O=C(O)c1cc(-c2ccc(-c3ccccc3F)c(F)c2)nc2ccc(F)cc12" as well.
OUTPUT: 8.78

INPUT: Could you do the same for "CCOc1ccc(-c2ccc(-c3cc(C(=O)O)c4cc(F)ccc4n3)c(OC)c2)cc1" , please?
OUTPUT: 7.80

INPUT: Item: "CCCCOc1cccc(-c2ccc(-c3cc(C(=O)O)c4cc(F)ccc4n3)c(OC)c2)c1"
OUTPUT: 9.15
